# credit: ChEMBL document CHEMBL5236585

System: Aspergillus fumigatus
Measurement notes: Antifungal activity against Aspergillus fumigatus CGMCC 3.7795 assessed as inhibition of fungal growth by microdilution method
Assay type: functional
Measurement label: MIC (µg/mL)
Response body: numeric value in µg/mL, unit text excluded.

Quick one: MIC for COc1cccc([Se]CC(O)(Cn2cncn2)c2ccc(F)cc2F)c1 (stereo unspecified) ?
8

I am curious: what MIC value has been reported for OC(C[Se]Cc1ccccc1Br)(Cn1cncn1)c1ccc(F)cc1F (stereo unspecified) ?
2

Field request: MIC | item: Cc1cccc(C)c1[Se]CC(O)(Cn1cncn1)c1ccc(F)cc1F (stereo unspecified)
4

Which MIC is reported for this compound? OC(C[Se]Cc1ccccc1Cl)(Cn1cncn1)c1ccc(F)cc1F (stereo unspecified)
2

Could you tell me which MIC is on file for Cc1ccccc1[Se]CC(O)(Cn1cncn1)c1ccc(F)cc1F (stereo unspecified) ?
16

Looking for the measured MIC of CCc1ccc([Se]CC(O)(Cn2cncn2)c2ccc(F)cc2F)cc1 (stereo unspecified) , can you help?
4

What value of MIC has been reported for the following compound? OC(C[Se]c1ccc(F)cc1)(Cn1cncn1)c1ccc(F)cc1F (stereo unspecified)
4

Give the measured MIC of OC(C[Se]Cc1ccc(C(F)(F)F)cc1)(Cn1cncn1)c1ccc(F)cc1F (stereo unspecified) .
4

Name the reported MIC value associated with the compound Cc1cccc(C[Se]CC(O)(Cn2cncn2)c2ccc(F)cc2F)c1 (stereo unspecified)
4

Reported MIC, compound Cc1ccc(C)c([Se]CC(O)(Cn2cncn2)c2ccc(F)cc2F)c1 (stereo unspecified) : ____
2

What does the data say about its MIC? Entry: Cc1cc(C)cc([Se]CC(O)(Cn2cncn2)c2ccc(F)cc2F)c1 (stereo unspecified)
8
